B1: TPR t1 (parent)
chain: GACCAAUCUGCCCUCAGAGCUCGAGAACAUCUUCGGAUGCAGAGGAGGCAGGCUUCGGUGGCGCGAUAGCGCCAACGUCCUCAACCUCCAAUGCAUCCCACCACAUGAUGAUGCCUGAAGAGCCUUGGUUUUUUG

Variants of: B1
Assay: polymerase ribozyme fitness, log enrichment relative to wild type (log ratio); higher = more active; in vitro selection for triplet polymerase activity
endpointName: polymerase ribozyme fitness (log ratio)
// return a plain number; no unit text

See these solved cases before continuing.
> print(dat)
                   mutant                             endpointname  datavalue
1  G57A G122C C123A U130C  polymerase ribozyme fitness (log ratio)      -1.47
2         G57C C62A G122A  polymerase ribozyme fitness (log ratio)      -3.31
3         G47A G71U C123A  polymerase ribozyme fitness (log ratio)     -0.967
4               C53U C73U  polymerase ribozyme fitness (log ratio)     -0.178
5               G61C C86A  polymerase ribozyme fitness (log ratio)      -2.15

Entry under review: C124A U134G . Reported polymerase ribozyme fitness (log ratio)?
3.41

What do you have for G45C C49U C97U A100U A121C U133C ?
-0.146

Further, for G10U G23U A26G G63A C114G ?
-5.43

Please do the same for C13G A43G as well.
-3.37

What about C22G A37U G69U U87G ?
-2.42
